measured.on: Human Cathepsin B (Homo sapiens)
assay.protocol: Cathepsin B protease specificity assay (Z-LR-AMC substrate)
Type: biochemical
run.conditions: 0.05 ng/uL Cathepsin B, pH 5.5, 2 mM DTT; read-out: IC50 HCathepsin B
measured.parameter: IC50 (µM)
Write it as a number; the unit µM goes unstated.

These recorded examples may help you get a feel for the data.
CC1(C)[C@@H]2[C@@H](C(=O)N[C@@H](C[C@@H]3CCNC3=O)C(=O)C(N)=O)N(C(=O)CCc3ccccc3)C[C@@H]21: 2.2
CC(C)C[C@H](NC(=O)OCc1ccccc1)C(=O)N[C@@H](CC1CCNC1=O)C(O)S(=O)(=O)[O-].[Na+] (stereo partly shown) [GC-376, reference compound]: 0.001
CC(C)(C)NC(=O)N[C@H](C(=O)N1C[C@H]2[C@@H]([C@H]1C(=O)NC(CC1CCC1)C(=O)C(N)=O)C2(C)C)C(C)(C)C (stereo partly shown) [Boceprevir, boceprevir, reference compound]: 4.5

Data request: Request - read-out IC50 | tested on Human Cathepsin B (Homo sapiens) | compound `COc1cccc2[nH]c(C(=O)N3C[C@H]4[C@@H]([C@H]3C(=O)N[C@@H](C[C@@H]3CCNC3=O)C(=O)C(N)=O)C4(C)C)cc12`
Data returned: 0.7
